Test: chemical genetic growth profiling, strain panel (AID 1159580);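 note: tested at 20 µM; growth read once vehicle control cultures reached saturation at 30 °C; 1 = growth at the plate median or of vehicle wells; lower values mean less growth of the strain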
Conditions: S. cerevisiae deletion strains, growth OD, locus YJL168C, strain set2, active compounds read low
About 2,000 (36%) of roughly 5,500 compounds were called active. Roughly 18% stayed inconclusive and do not appear here. This is one part of the list.
# normalized growth listing for each entry below
ASSAY ENDPOINT: normalized growth

[
  {
    "COMPOUND": "CC[C@@]1(O)C(=O)OCc2c1cc1n(c2=O)Cc2cc3cc(O)ccc3nc2-1",
    "TEST RESULT": 0.989
  },
  {
    "COMPOUND": "COC1C(O)C(O[C@H]2CC[C@]3(C=O)C4C(CC[C@]3(O)C2)[C@@]2(O)CC[C@H](C3=CC(=O)OC3)[C@@]2(C)C[C@H]4OC(C)=O)OC(C)C1OC(C)=O (stereo partly drawn)",
    "TEST RESULT": 1.03
  },
  {
    "COMPOUND": "CO[C@H]1[C@H](O)[C@@H](O[C@H]2CC[C@]3(C=O)C4CC[C@]5(C)[C@@H](C6=CC(=O)OC6)CC[C@]5(O)C4CC[C@@H]3C2)O[C@@H](C)[C@@H]1O (stereo partly drawn)",
    "TEST RESULT": 0.992
  }
]
